Tested on: Wolbachia pipientis
Test: Anti-Wolbachia Cell-Based Screen
Type: functional
Parameters: scale not given: in the data most compounds retested in dose-response had high values
Conditions: 5 µM
In all, about 48,000 compounds went through this assay and about 13,000 (27%) showed an effect of 50% or more. Some of the results follow.
Field: Percent Effect. Provide a value for each of the compounds that follow.
Give bare numbers, in %.

* Cc1csc(N2CCN(C(=O)c3cc(C4CC4)[nH]n3)CC2)n1 | -15.84
* Cc1nn(C)cc1-c1ccnc(N2CCN(c3ccccc3)C(=O)C2)n1 | -10.97
* O=S(=O)(Cc1ccccc1)NCC1CCCN(Cc2cccs2)C1 (stereo not drawn) | -20.75

Dear reader, for each entry below, please note its Percent Effect.
1. Cc1cc(C)nc(NC2CC(=O)N(C(C)(C)C)C2)n1 (stereo not drawn)
2. NC(=O)CN1C(=O)CO[C@H]2CN(Cc3ccccc3)C[C@H]21

output:
1. -13.08
2. -7.855

Would you mind listing Percent Effect for each of the following compounds?
1. Cc1cc(C(=O)N2CCCCC2c2nc(C)cs2)[nH]n1 (stereo not drawn)
2. CC(C)c1nc(O)c2nnn(C[C@@H]3CCCN(Cc4cccs4)C3)c2n1
3. c1cc(-c2n[nH]cc2-c2ccnc(N3CCCC3)n2)ccn1
4. N#Cc1c(N)nc2c(c1-c1cnc(N3CCCC3)nc1)COCC2
5. CCOc1ccc(-c2c(C#N)c(N)nc3c2COCC3)cn1

output:
1: 5.063; 2: 127; 3: 100.8; 4: 84.51; 5: 106.3
